src = PubChem BioAssay (NCI)

- System: CAKI-1 renal
- run.description: NCI-60 one-dose screen, 48 h (100 = growth as untreated, 0 = no growth, -100 = all killed)
- condition.summary: 10 µM unless noted
This is part of a sample that, as a whole, favours compounds with a hit. Of some 83,000 tested, about 20% had one in any assay.
outcome.measure: growth (%)
Numbers only here, please. The scale is %.

q: Dear colleague, I am looking for the recorded growth of the following molecule: NC(=NCCCOc1ccc(Cl)cc1)Nc1ccc(Cl)cc1
a: 19.3

q: Dear colleague, I am looking for the recorded growth of the following molecule: O=C1/C(=C/c2ccccc2O)N=C2SCCCN12
a: 85.1

q: Dear colleague, I am looking for the recorded growth of the following molecule: CC1(C)CC[C@]2(C(=O)Nc3ccccn3)CC[C@]3(C)C(=CC[C@@H]4[C@@]5(C)C/C(=C/c6cccnc6)C(=O)C(C)(C)[C@@H]5CC[C@]43C)[C@H]2C1
a: 36.3

q: Dear colleague, I am looking for the recorded growth of the following molecule: FC(F)(F)c1ccc(-c2cn3nc(-c4c[nH]c5ccc(Br)cc45)sc3n2)cc1
a: 61.4

====

- System: NCI/ADR-RES ovarian
- run.description: NCI-60 one-dose screen, 48 h
- condition.summary: 10 µM unless noted
This is part of a sample that, as a whole, favours compounds with a hit. Of some 83,000 tested, about 20% had one in any assay. Activity calls are given as the source filed them. How the source made its calls: active means growth percent below 10; inactive means the rest.
Would you mind answering with one of these outcomes? yes (active), no (inactive)

q: What did the test return for OCCN1CCN(c2nc(Nc3ccc(-c4nc5ccccc5[nH]4)cc3)c3cn[nH]c3n2)CC1 ?
a: yes

q: What did the test return for COc1ccc2c(c1)O/C(=C\c1cccc(OCC(=O)Nc3nc4c(s3)CCCC4)c1)C2=O ?
a: yes

q: What did the test return for Cc1nc(Nc2ccc(F)c(Cl)c2)sc1C(=O)O ?
a: no

q: What did the test return for N#C/C(=C\c1ccc(-c2ccc(Cl)c(Cl)c2)o1)c1nc(-c2ccco2)cs1 ?
a: no

q: What did the test return for CC1=C/C(=C(\c2ccc(N(C)C)cc2)c2ccc([N+](C)(C)C)cc2)C=CC1=[N+](C)C ?
a: no

q: What did the test return for COc1ccccc1NS(=O)(=O)c1ccc2oc(SC(C)C)nc2c1 ?
a: no

q: What did the test return for COc1ccc(-c2cc(C(=O)N=Nc3c(O)[nH]c4ccc(Br)cc34)no2)cc1 ?
a: no

q: What did the test return for CCOC(=O)n1cc(-c2nonc2-c2cn(C)c3ncccc23)c2ccccc21 ?
a: no

q: What did the test return for CN1CCN=C1c1ccc(NC(=O)c2ccc(C(=O)Nc3ccc(C4=NCCN4C)cc3)cc2)cc1 ?
a: no

q: What did the test return for CCCCC[C@H]1C/C=C2/C(=O)C=C[C@@H]2C/C=C\CCCC(=O)O1 ?
a: no

====

- System: HS 578T breast
- run.description: NCI-60 one-dose screen, 48 h (100 = growth as untreated, 0 = no growth, -100 = all killed)
- condition.summary: 10 µM unless noted
- Experimental: Growth inhibition of the HS 578T human tumor cell line is measured as a screen for anti-cancer activity. Cells are grown in 96 well plates and exposed to the test compound for 48 hours. Compounds are tested at a single concentration, which is 10^-5 M for most compounds. The reported endpoint is percent growth (GI% or GIPRCNT), where numbers from 0 - 100% represent growth inhibition, and numbers from -100% - 0 represent cell death. For example, a value of 40 represents 60% growth inhibition. […]
This is part of a sample that, as a whole, favours compounds with a hit. Of some 83,000 tested, about 20% had one in any assay.
outcome.measure: growth (%)
Numbers only here, please. The scale is %.

q: Dear colleague, I am looking for the recorded growth of the following compound: Cc1ccc(C2=NN3C(C2)c2cc(Br)ccc2OC32CCN(Cc3ccccc3)CC2)o1 (stereo not drawn)
a: 92

q: Dear colleague, I am looking for the recorded growth of the following compound: CN(C)CCCNc1c2ccccc2nc2ccccc12
a: 75.7

q: Dear colleague, I am looking for the recorded growth of the following compound: O=C1NC(=S)N[C@H]1CC(=O)n1cnc2ccccc21
a: 99.1
